Test system: DR7
measurement-description: DR7

- substance: "p26: overlapping 15mer peptide of HLA-A2, SEQ ID NO: 29, sequence in Figure 3 (IALKEDLRSWTAADM)"
  IC50, nM: 825

---

System: DR3
measurement-description: DR3
recorded-metric: IC50 (µM)

- substance: "p26: overlapping 15mer peptide of HLA-A2, SEQ ID NO: 29, sequence in Figure 3 (IALKEDLRSWTAADM)"
  unit-abbrev: "µM"
  value-measured: 4.61

---

Test system: DR51-DRB5
measurement-description: DRB5
recorded-metric: IC50 (nM)

- substance: "p26: overlapping 15mer peptide of HLA-A2, SEQ ID NO: 29, sequence in Figure 3 (IALKEDLRSWTAADM)"
  value-measured: 1380
